Each recorded value in this set is attributed to PubChem BioAssay (NCI).

Test system: SNB-78 CNS
PROCEDURE_TEXT: NCI tumour cell line growth inhibition, 48 h
MEASURE: TGI

Please report TGI for the following compound: `O=C1c2ccccc2C(Br)(Br)c2ccccc21`
> 100 µM

// fetch TGI given entry `CN(C)CC(C)(C)/C(=N\Nc1ccccc1)c1ccccc1`
> 100 µM

Give me measured TGI, please, for this compound: CC(C)(C)N=NNc1cn(C2OC(CO)C(O)C2O)c(=O)[nH]c1=O (stereo unspecified)
> 100 µM

Consider the compound `COc1ccc(OC)c(/C(C)=N/NC(N)=S)c1` . State its measured TGI.
> 100 µM

Provide one value: measured TGI of `CCCCCC[N+](C)(C)Cc1ccc(C[N+](C)(C)CCCCCC)cc1`
5.15 µM

Please list TGI recorded for the compound Cc1ccc(NC(=O)C2C(=O)N(c3ccc(C)cc3)C(=O)/C2=N\NC(N)=S)cc1 (stereo unspecified)
> 100 µM

Annotate the compound `O=C(O)CCCCCCC[C@H]1S[C@H]1CCCCCCO` with its measured TGI.
> 100 µM

Give the reported TGI for this compound. `O=C1c2ccc(O)cc2C(=O)c2ccc(O)cc21`
> 100 µM

Give the reported TGI for this compound. `c1cc(N(CCn2cccn2)CCn2cccn2)cc(N(CCn2cccn2)CCn2cccn2)c1`
> 100 µM

Specify reported TGI for the compound shown: CCC[CH2][Sn]1([CH2]CCC)[O]CC(Cc2ccccc2)[O]1 (stereo unspecified)
7.46 µM

Answer with the recorded TGI for the compound listed here: `C[N-]c1nnnn1C.[Au+].c1ccc([PH+](c2ccccc2)c2ccccc2)cc1`
> 69.1 µM

* * *

Tested on: HCT-15 colon
PROCEDURE_TEXT: NCI tumour cell line growth inhibition, 48 h
Where a SMILES comes first, the peptide text is derived from it. The star is where a group is joined. Boc = CC(C)(C)OC(=O)*; OSu = O=C1CCC(=O)N1O*
Provide the recorded TGI for the entries that follow.

Tell us which TGI value is on record for Cc1ccc(NC(=O)C2C(=O)N(c3ccc(C)cc3)C(=O)/C2=N\NC(N)=S)cc1 (configuration not stated)
> 100 µM

Specify TGI for `O=S(=O)(CCBr)CCBr` and stop.
7.88 µM

Assign TGI to the following record: O=[N+]([O-])C1CC/C(=N/O)c2nonc21 (configuration not stated)
> 10 µM

Report TGI, nothing else, for this compound: `CC(C)=CCc1c(OC(=O)c2c(C)cc(O)cc2O)cc(CO)c(CO)c1O`
34.6 µM

Identify TGI associated with the compound `O=c1nc(/C=C/c2ccccc2Cl)cc2n1CCN2CCO`
> 100 µM

Supply measured TGI of `COc1ccc2nc3c([N+](=O)[O-])ccc4c3c(c2c1)NCCN4CCO` in your reply.
2.68 µM

Return the recorded TGI value; entry: `O=C(NCCC1([N+](=O)[O-])CCN(C(=O)c2ccccc2)CC1)c1ccccc1`
> 100 µM

Give TGI for the following compound: `COC(=O)/C(=C\Nc1cccc(C)n1)S(=O)(=O)c1ccc(C)cc1`
> 100 µM

Supply reported TGI belonging to this compound: CC[N+](CC)=c1sc2c(s1)C(c1ccc(Cl)cc1)Oc1ccc(Cl)cc1-2 (configuration not stated)
21.5 µM

Specify measured TGI for `CN(C)CCCNC(=O)c1cc(NC(=O)c2cc(NC(=O)CCc3c[nH]c4ccccc34)cn2C)cn1C` .
> 100 µM

Find the measured TGI of `NC(N)=N/N=C/c1nc2n(c1[N+](=O)[O-])CCS2` and report it.
> 100 µM

Read the entry CC(NC(=O)C(NC(=O)OC(C)(C)C)C(C)C)C(=O)NCC(=O)ON1C(=O)CCC1=O (stereo not drawn) (Boc-Val-Ala-Gly-OSu; configuration not given here) and write its reported TGI.
> 100 µM

Specify TGI for `[Cl][Hg][Cl]` and stop.
30.1 µM

Identify measured TGI corresponding to `Cc1nn(-c2nc3ccccc3[nH]2)c(N)c1-c1ccc(Cl)cc1`
> 100 µM

Read off the recorded TGI for OC(c1cc2ccccc2o1)c1cc2ccccc2s1 (configuration not stated)
> 10 µM

Give the reported TGI for this compound. `COc1cc(/C=C2\C(=O)Nc3cc(C)c(O)cc32)cc(OC)c1OC`
14.5 µM

Read the entry `O=C1NC(SSC2=NNC3(C(=O)N2)c2ccccc2-c2ccccc23)=NNC12c1ccccc1-c1ccccc12` and write its reported TGI.
> 10 µM

Output TGI of `Oc1ccc(-c2nc(-c3cccnc3)c(-c3ccc(Cl)cc3)[nH]2)cc1O`
22.2 µM

In one line, give reported TGI of the entry CCCCC(C#N)(OP1(=O)OC(c2ccccc2)C(C)N1C)c1ccccc1 (configuration not stated) .
54.8 µM

Item `Cc1cc(=O)oc2cc(OC(=O)N(C)C)c(Cl)cc12` : provide TGI
> 100 µM

Give TGI for the following compound: `O=C(/C=C/c1ccc(O)c(O)c1)OCCCc1ccccc1`
26.4 µM

Recall and state the measured TGI for `Fc1ccc2[nH]cc(-c3nonc3-c3c[nH]c4ccc(Br)cc34)c2c1` .
3.29 µM

Supply reported TGI belonging to this compound: `Cc1sc2nc(-c3ccncc3)c(/C=N/N=C(N)N)n2c1C`
> 100 µM

Supply measured TGI of `COc1ccc(-c2cc(=O)c3cc4c(cc3[nH]2)OCO4)cc1OC` in your reply.
> 100 µM

Identify measured TGI corresponding to CCCCC(=O)NS(=NC(=O)c1ccccc1)C(Cl)(Cl)Cl (configuration not stated)
> 100 µM

Report measured TGI; entry is `CCCSc1ccc2[nH]c(N3C(=O)/C(=C/c4ccco4)N=C3c3ccccc3)cc2c1`
> 50 µM

Indicate its recorded TGI; the compound in question is `CCCCCC[N+](C)(C)Cc1ccc(C[N+](C)(C)CCCCCC)cc1`
23.7 µM

Give the reported value of TGI for this record: `N#CCc1n[nH]c(Cc2ccccc2)n1`
> 100 µM

Look up and state reported TGI for C=C1C(O)C2C(=C(CCc3ccccc3)C13CC3)C(=O)C(C)(CO)C2O (configuration not stated)
> 100 µM

Give the reported value of TGI for this record: `Cc1[nH]c2c(c1C)S(=O)(=O)c1cc3ccccc3nc1N2`
> 100 µM

Give TGI for the following compound: CCCCCCCCOC1C(O)C(O)C(O)C(O)C12CO2 (configuration not stated)
> 100 µM

Entry `Cc1nc(SCC(=O)Nc2nc(-c3ccc(Cl)cc3)cs2)n(Nc2ccccc2)c1C` needs its TGI filled in; supply it.
23.3 µM

Give TGI for the following compound: `CNC(=O)c1ccc(N2CCN(Cc3ccc4nc(C)c(=O)[nH]c4c3F)CC2)c(F)n1`
> 100 µM

Recall and state the measured TGI for COCCCNC(=O)C1C(=O)N(CCCOC)C(=O)/C1=N\N (configuration not stated) .
> 100 µM

Item `COC(=O)[C@@H](C)C[C@H](Cc1ccccc1)NC(=O)c1csc(CC[C@H](C(C)C)N(C)C(=O)[C@@H](NC(=O)[C@H]2CCCCN2C)C(C)C)n1` : provide TGI
> 33.3 µM

Specify measured TGI for `COc1ccc2nc3ccc(OC)cc3c(SCCO)c2c1` .
> 100 µM

Please look at this compound and report its TGI: CCc1cc(Cc2cc(Cl)c(NC(=O)C(=O)C3NC(=O)NC3=O)c(CC)c2)cc(Cl)c1NC(=O)C(=O)C1NC(=O)NC1=O (configuration not stated)
35.6 µM

Supply recorded TGI for `COc1cc2c(c(OC)c1OC)-c1ccc(SC)c(=O)cc1[C@@H](NCc1ccc(C#N)cc1)CC2` here.
0.0463 µM

// Input: `O=C(O)c1cc2ccccc2c(N=Nc2ccc(S(=O)(=O)Nc3nccs3)cc2)c1O` . Output its TGI only.
> 100 µM

Return TGI for the following compound: Nc1nc(SCc2ccc([N+](=O)[O-])cc2)nc2c1ncn2C1OC(COP(=O)(O)O)C(O)C1O (configuration not stated)
> 100 µM

Read the entry CC(=O)[C@@]1(C)CC2(CCN(C)CC2)OC1C (some centres not stated) and write its reported TGI.
> 100 µM

Give a short answer stating reported TGI for `COC(=O)CCc1c[nH]c2ccc(N(CCCl)CCCl)cc12` .
> 59.3 µM
